meta.source: ChEMBL document CHEMBL1148815

ASSAY_EXPLANATION: Cytotoxicity against mouse F3 cells by MTT assay
Type: cell-based
ASSAY_SETUP: n2a #58 f3
Assign Activity to each entry below.

C=C(C)C1=NN(c2ccccc2)C(=O)C1
> 1000 nM
O=C(NC1=NN(c2ccccc2)C(=O)C1)c1ccccc1
> 1000 nM
O=C(Nc1ccccc1)C1=NN(c2ccccc2)C(=O)C1
> 1000 nM
CC1=NN(C2CCCCC2)C(=O)C1
> 1000 nM
O=C1CC(Cc2ccccc2)=NN1c1ccccc1
> 1000 nM
O=C1CC(c2ccccc2)=NN1c1ccccc1
> 100 nM

Required: Activity, one value per compound below.
1. CC1=NN(c2ccccc2)C(=O)C1C(=O)c1ccccc1 (stereo not drawn)
2. CC1=NN(c2ccccc2)C(=O)C1c1ccccc1 (stereo not drawn)

Result ::
1. > 1000 nM
2. > 100 nM

I'm hoping you can list Activity for every compound here, please.
1. CC1=NN(c2ccccc2)C(=O)C1C1CC1 (stereo not drawn)
2. O=C1CC(c2ccc([N+](=O)[O-])cc2)=NN1c1ccccc1
3. COc1ccc(C2=NN(c3ccccc3)C(=O)C2)cc1
4. COc1ccc(N2N=C(C)CC2=O)cc1
5. O=C(NC1=NN(c2ccccc2)C(=O)C1)NC1CCCC1

Result ::
1. > 1000 nM
2. > 1000 nM
3. > 100 nM
4. > 100 nM
5. > 1000 nM
